Tested on: Mus musculus
Assay: Neurotoxicity in Albino mouse at 100 mg/kg, ip after 4 hrs by RotaRod test
Assay type: toxicity, organism-based
Design: dose 100 mg/kg, route intraperitoneal
Conditions: in vivo
metricName: Activity

See these solved cases before continuing.
c1ccc(N2N=C(c3ccco3)CC2c2ccco2)cc1 (configuration not stated) | Not Active
C=CCNC(=S)N1N=C(c2ccco2)CC1c1ccco1 (configuration not stated) | Not Active
NC(=S)N1N=C(c2ccco2)CC1c1ccco1 (configuration not stated) | Not Active
S=C(Nc1ccccc1)N1N=C(c2ccco2)CC1c1ccccc1 (configuration not stated) | Not Active
C=CCNC(=S)N1N=C(c2ccco2)CC1c1ccccc1 (configuration not stated) | Not Active
CNC(=S)N1N=C(c2ccco2)CC1c1ccccc1 (configuration not stated) | Not Active
NC(=S)N1N=C(c2ccco2)CC1c1ccccc1 (configuration not stated) | Not Active
S=C(Nc1ccccc1)N1N=C(c2ccco2)CC1c1ccco1 (configuration not stated) | Not Active
CCNC(=S)N1N=C(c2ccco2)CC1c1ccccc1 (configuration not stated) | Not Active
c1ccc(C2CC(c3ccco3)=NN2c2ccccc2)cc1 (configuration not stated) | Not Active

[in] With Mus musculus as the test system, provide measured Activity for this compound: CCNC(=S)N1N=C(c2ccco2)CC1c1ccco1 (configuration not stated)
[out] Not Active

[in] With Mus musculus as the test system, provide measured Activity for this compound: CNC(=S)N1N=C(c2ccco2)CC1c1ccco1 (configuration not stated)
[out] Not Active

----------
Measured Activity by item
System: Mus musculus
Assay: Antidepressant activity in Albino mouse assessed as duration of immobility at 10 mg/kg, ip by forced-swimming test
Type: functional
Conditions: route intraperitoneal
Lab book: enter the figure in s, no units written.

See these solved cases before continuing.
c1ccc(N2N=C(c3ccco3)CC2c2ccco2)cc1 (stereo not drawn) | 169
C=CCNC(=S)N1N=C(c2ccco2)CC1c1ccccc1 (stereo not drawn) | 190
S=C(Nc1ccccc1)N1N=C(c2ccco2)CC1c1ccccc1 (stereo not drawn) | 184
N[C@H]1C[C@@H]1c1ccccc1.O=S(=O)(O)O | 57

[in] Let me know recorded Activity for S=C(Nc1ccccc1)N1N=C(c2ccco2)CC1c1ccco1 (stereo not drawn) , thanks.
[out] 181

[in] Let me know recorded Activity for NC(=S)N1N=C(c2ccco2)CC1c1ccco1 (stereo not drawn) , thanks.
[out] 182

[in] Let me know recorded Activity for CCNC(=S)N1N=C(c2ccco2)CC1c1ccco1 (stereo not drawn) , thanks.
[out] 211

[in] Let me know recorded Activity for c1ccc(C2CC(c3ccco3)=NN2c2ccccc2)cc1 (stereo not drawn) , thanks.
[out] 213

[in] Let me know recorded Activity for CNC(=S)N1N=C(c2ccco2)CC1c1ccco1 (stereo not drawn) , thanks.
[out] 186

----------
Tested on: Mus musculus
Experiment: Neurotoxicity in Albino mouse at 300 mg/kg, ip after 4 hrs by RotaRod test
Format: toxicity, organism-based
Set-up: dose 300 mg/kg, route intraperitoneal
Conditions: in vivo
metricName: Activity

See these solved cases before continuing.
S=C(Nc1ccccc1)N1N=C(c2ccco2)CC1c1ccccc1 (stereo unspecified) | Not Active
CCNC(=S)N1N=C(c2ccco2)CC1c1ccco1 (stereo unspecified) | Not Active
NC(=S)N1N=C(c2ccco2)CC1c1ccccc1 (stereo unspecified) | Not Active
C=CCNC(=S)N1N=C(c2ccco2)CC1c1ccco1 (stereo unspecified) | Not Active
S=C(Nc1ccccc1)N1N=C(c2ccco2)CC1c1ccco1 (stereo unspecified) | Not Active

Could you now consider this next molecule?
[in] Let me know recorded Activity for c1ccc(C2CC(c3ccco3)=NN2c2ccccc2)cc1 (stereo unspecified) , thanks.
[out] Not Active

----------
System: Mus musculus
Test: Antidepressant activity in Albino mouse assessed as duration of immobility at 10 mg/kg, ip by forced-swimming test
Assay type: functional
Details: route intraperitoneal
Measured Activity by item
Lab book: enter the figure in s, no units written.

CCNC(=S)N1N=C(c2ccco2)CC1c1ccccc1 (centres undefined) | 139
C=CCNC(=S)N1N=C(c2ccco2)CC1c1ccco1 (centres undefined) | 144
NC(=S)N1N=C(c2ccco2)CC1c1ccccc1 (centres undefined) | 202

Could you now consider this next compound?
[in] Let me know recorded Activity for CNC(=S)N1N=C(c2ccco2)CC1c1ccccc1 (centres undefined) , thanks.
[out] 201

Origin of measurements: ChEMBL document CHEMBL1143773
